subject-of-test: KRAS G13C (Homo sapiens (Human), UniProt P01116+P62937, G13C)
Sequence (P01116 other isoform, or with tags, fused parts or gaps G13C): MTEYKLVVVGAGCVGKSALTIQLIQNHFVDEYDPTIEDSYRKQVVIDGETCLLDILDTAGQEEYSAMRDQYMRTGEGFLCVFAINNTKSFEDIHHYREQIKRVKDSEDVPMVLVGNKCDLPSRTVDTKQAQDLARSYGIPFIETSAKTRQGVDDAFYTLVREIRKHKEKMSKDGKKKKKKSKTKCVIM
Sequence (P62937 whole entry): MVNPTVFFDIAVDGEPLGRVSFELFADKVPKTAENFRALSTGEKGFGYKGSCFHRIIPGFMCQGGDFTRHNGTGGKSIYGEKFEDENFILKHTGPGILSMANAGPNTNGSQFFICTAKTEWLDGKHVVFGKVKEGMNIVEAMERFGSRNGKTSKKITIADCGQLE
protocol-summary: Ras-Raf disruption/FRET/MOA assay (BRAF RBD, Cyclophilin A)
Assay type: biochemical
test-context: read-out: KRAS G13C FRET IC50
Each entry below carries its reported IC50.

Task: I am curious: what IC50 value has been reported for CCn1c(-c2cccnc2[C@H](C)OC)c2c3cc(ccc31)-c1cc(O)cc(c1)C[C@H](NC(=O)[C@H](C(C)C)N(C)C(=O)C1CC13CNC3)C(=O)N1CCC[C@H](N1)C(=O)OCC(C)(C)C2 (some centres unmarked) ?
Output: 10 to 100 nM

Task: Another molecule: "CCn1c(-c2cccnc2[C@H](C)OC)c2c3cc(ccc31)-c1cc(O)cc(c1)C[C@H](NC(=O)[C@H](C(C)C)N(C)C(=O)[C@H]1CC[C@@H]1N)C(=O)N1CCC[C@H](N1)C(=O)OCC(C)(C)C2"
Output: 10 to 100 nM
